# assay target: T1, CD3ε homodimer protein (human, UniProt P07766 23-126, limits assumed, sulfo-tag or biotin label in some ECL assays)
# T1 construct: also called human CD3ε homodimer protein; CD3 (CD3ε)
# T1 sequence (P07766 23-126 limits assumed): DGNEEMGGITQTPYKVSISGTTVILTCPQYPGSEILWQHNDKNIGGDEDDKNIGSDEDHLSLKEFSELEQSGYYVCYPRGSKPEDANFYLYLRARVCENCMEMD
# measurement notes: SPR, CD3ε homodimer on chip;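 note: biacore SPR with antibody variants flowed as analyte over amine-coupled CD3ε homodimer on a CM chip, bound amount of each single-residue H chain variant over that of parent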
Reported ratio of amounts bound vs CE115HA000 values are given for each entry in this list.
Lab note: record the figure alone, no unit after it.

// solved cases for ratio of amounts bound vs CE115HA000 follow
CE115HA000 V100cA (antibody, name in Kabat numbering, V domains shown) VH: QVQLVESGGGVVQPGRSLRLSCAASGFTFSNAWMHWVRQAPGKGLEWVAQIKAKSNNYATYYAESVKGRFTISRDDSKNSLYLQMNSLKTEDTAVYYCRYVHYGAYYGADAWGQGTTVTVSS VL: DIVMTQSPLSLPVTPGEPASISCRSSQSLVHSNRNTYLHWYQQKPGQAPRLLIYKVSNRFSGVPDRFSGSGSGTDFTLKISRVEAEDVGVYYCGQGTQVPYTFGQGTKLEIK	0.48
CE115HA000 S30G (antibody, name in Kabat numbering, V domains shown) VH: QVQLVESGGGVVQPGRSLRLSCAASGFTFGNAWMHWVRQAPGKGLEWVAQIKAKSNNYATYYAESVKGRFTISRDDSKNSLYLQMNSLKTEDTAVYYCRYVHYGAYYGVDAWGQGTTVTVSS VL: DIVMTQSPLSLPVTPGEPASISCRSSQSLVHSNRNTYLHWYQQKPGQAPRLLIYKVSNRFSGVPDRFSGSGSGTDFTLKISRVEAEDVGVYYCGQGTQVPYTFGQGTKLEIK	1.01
CE115HA000 L78I (antibody, name in Kabat numbering, V domains shown) VH: QVQLVESGGGVVQPGRSLRLSCAASGFTFSNAWMHWVRQAPGKGLEWVAQIKAKSNNYATYYAESVKGRFTISRDDSKNSIYLQMNSLKTEDTAVYYCRYVHYGAYYGVDAWGQGTTVTVSS VL: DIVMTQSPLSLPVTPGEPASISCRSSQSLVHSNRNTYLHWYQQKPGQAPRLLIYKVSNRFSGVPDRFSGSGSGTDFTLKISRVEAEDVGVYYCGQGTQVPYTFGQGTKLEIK	1.34
CE115HA000 S62D (antibody, name in Kabat numbering, V domains shown) VH: QVQLVESGGGVVQPGRSLRLSCAASGFTFSNAWMHWVRQAPGKGLEWVAQIKAKSNNYATYYAEDVKGRFTISRDDSKNSLYLQMNSLKTEDTAVYYCRYVHYGAYYGVDAWGQGTTVTVSS VL: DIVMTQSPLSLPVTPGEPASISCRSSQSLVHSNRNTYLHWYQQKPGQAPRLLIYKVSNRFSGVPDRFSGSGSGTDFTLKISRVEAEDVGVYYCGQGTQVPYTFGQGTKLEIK	0.92

CE115HA000 N53G (antibody, name in Kabat numbering, V domains shown) VH: QVQLVESGGGVVQPGRSLRLSCAASGFTFSNAWMHWVRQAPGKGLEWVAQIKAKSGNYATYYAESVKGRFTISRDDSKNSLYLQMNSLKTEDTAVYYCRYVHYGAYYGVDAWGQGTTVTVSS VL: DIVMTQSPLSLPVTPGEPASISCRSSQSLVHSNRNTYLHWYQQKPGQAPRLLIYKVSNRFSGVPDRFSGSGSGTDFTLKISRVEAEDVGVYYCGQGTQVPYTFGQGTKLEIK yielded ratio of amounts bound vs CE115HA000 of 0.5
